# Test system: MCF7 breast
# test.protocol: NCI tumour cell line growth inhibition, 48 h
readout.kind: TGI

Example entries and their recorded answers appear below.
compound: O=C(Nc1ccc(N2C(=O)CSC2c2cccs2)cc1)c1ccc(N2C(=O)CSC2c2cccs2)cc1 (centres undefined)
TGI: > 100 µM

compound: CCN(CC)CCNc1ccc2ncn3c4c(OC)ccc(=O)c4c(O)c1c23
TGI: > 70.7 µM

compound: CCCC(=O)Nc1ncnc2c1ncn2C1OC2COP(=O)(O)OC2C1OC(=O)CCC (centres undefined)
TGI: > 1000 µM

compound: O=C1CCCCCCCCCCC1CN(Cc1ccccc1)Cc1ccccc1 (centres undefined)
TGI: 68.1 µM

compound: O=C(O)c1nc2cc(C(F)(F)F)ccc2[nH]c1=O
TGI: > 100 µM

# TGI (compound: CC1=C2c3ccccc3N(S(=O)(=O)c3ccccc3)[C@H]2[C@H](C(=O)N2C3CC4CC[C@@]3(CS2(=O)=O)C4(C)C)CC1 (some centres undefined) ) is 75.4 µM

# TGI (compound: Cc1ccc(C2SC(N)=Nc3c2c(C)nn3C(=O)c2ccc(Cl)cc2)cc1 (centres undefined) ) is > 10 µM

# TGI (compound: COC1CC(n2ccc(=O)[nH]c2=O)OC1CO (centres undefined) ) is > 100 µM

# TGI (compound: "c1ccc(C2=NN[C@H](c3cn(-c4ccccc4)nc3-c3ccccc3)C2)cc1" ) is > 100 µM

# TGI (compound: CCN(CC)CCOCC1CCCN2CCCCC12 (centres undefined) ) is > 100 µM

# TGI (compound: Cc1ccc(C(CC(=O)c2ccccc2)C(C(=O)c2ccccc2)C(c2ccc(C)cc2)C2C(=O)NC(=S)NC2=O)cc1 (centres undefined) ) is > 50 µM

# TGI (compound: "O=C(O)CP(=O)(c1ccccc1)c1ccccc1.O=C(O)CP(=O)(c1ccccc1)c1ccccc1.[Cd]" ) is > 100 µM

# TGI (compound: "Cc1nc2sc(C(=O)Nc3cccc(Cl)c3C)c(N)c2cc1C(=O)c1ccccc1" ) is > 50 µM

# TGI (compound: CC(=O)OC1CC(C)c2c(Cl)ncnc21 (centres undefined) ) is > 100 µM

====

# Test system: NCI-H522 lung
# test.protocol: NCI tumour cell line growth inhibition, 48 h
readout.kind: GI50

# GI50 (compound: "C(=C\c1nc2ccccc2s1)/c1ccc(N2CCOCC2)s1" ) is 49.2 µM

# GI50 (compound: "COc1ccc2c([nH]c3cc(O)c(C)cc32)c1CC=C(C)C" ) is 5.92 µM

# GI50 (compound: "COc1cc([N+](=O)[O-])c(OC)cc1-c1nc2n(c1/C(N)=N/C(=N)N)CCS2" ) is 47.7 µM

# GI50 (compound: "CN1CCN(CCCOc2ccc3nc(Nc4ccc(C(F)(F)F)c(Cl)c4)ccc3c2)CC1" ) is 2.02 µM

# GI50 (compound: CNc1ccc(C(=O)CC(O)CCC(C)C2OC(=O)CC(O)CC(=O)CC(O)CC(O)CC(O)CC(O)CC3(O)CC(O)C(C(=O)NCCc4ccccn4)C(CC(OC4OC(C)C(O)C(N)C4O)/C=C/C=C/C=C/C=C\C=C/C=C/C=C/C2C)O3)cc1 (stereo not given) ) is 4.21 µM

====

# Tested on: CCRF-CEM leukemia
# test.protocol: NCI tumour cell line growth inhibition, 48 h
readout.kind: TGI

compound: CCCCCCCSCC1OC(n2cnc3c(N)ncnc32)C(O)C1O (stereo not drawn)
reported.measurement: > 100 µM
--
compound: Cc1ccc(C(=O)c2[nH]c(Nc3ccc(Cl)cc3)c(C(=S)Nc3ccccc3)c2N)cc1
reported.measurement: > 100 µM
--
compound: CCOC1=C2C(C)(CCC3[C@@]4(C)C=CC(=O)C(C)(C)C4CC(O)[C@@]23C)C(c2ccoc2)C1=O (stereo partly drawn)
reported.measurement: 38.9 µM
--
compound: O=C(O)c1nc2cc(C(F)(F)F)ccc2[nH]c1=O
reported.measurement: > 100 µM
--
compound: COc1cc2c(cc1OC)CN1CCc3ccccc3CC1C2 (stereo not drawn)
reported.measurement: > 100 µM

# TGI (compound: "Cc1cc(O)c(O)c(Oc2cc(C)cc(O)c2O)c1" ) is 7.46 µM

# TGI (compound: O=C1CSC(c2ccccc2[N+](=O)[O-])N1c1ccc(-n2c(-c3ccccc3)nc3ccccc3c2=O)cc1 (stereo not drawn) ) is > 100 µM

# TGI (compound: Cc1csc(-c2ccc3c(c2)COC3(CCCN(C)C)c2ccc(F)cc2)c1 (stereo not drawn) ) is 5.35 µM
